system: SK-MEL-5 melanoma; experiment: NCI tumour cell line growth inhibition, 48 h; in the data active means GI50 below about 0.43 µM; inactive means the rest
Classes used: 1 for active, -1 for inactive

- compound: "Clc1ccccc1CNc1c2ccccc2nc2ccccc12"
  test system: "SK-MEL-5 melanoma"
  cat: -1
- compound: "C=C(CO)[C@@H]1CC[C@]2(COC3CCCCO3)CC[C@]3(C)[C@H](CC[C@@H]4[C@@]5(C)C=C(C=O)C(=O)C(C)(C)[C@@H]5CC[C@]43C)[C@@H]12 (stereo partly specified)"
  test system: "SK-MEL-5 melanoma"
  cat: 1
- compound: "[N-]=[N+]=NCCCn1c2c(c3ccc([N+](=O)[O-])cc3c1=O)C(=O)c1cc(F)ccc1-2"
  test system: "SK-MEL-5 melanoma"
  cat: -1
- compound: "OCCNc1nc(Nc2ccc(Cl)c(Cl)c2)nc2ccccc12"
  test system: "SK-MEL-5 melanoma"
  cat: -1
- compound: "CCn1c(-c2nonc2N)nc2c(C#CC(C)(C)O)ncc(OC[C@H]3CCCNC3)c21"
  test system: "SK-MEL-5 melanoma"
  cat: -1
- compound: "O=C(N/N=C/c1ccc(O)cc1O)c1cccc(Nc2ccnc(C(F)(F)F)c2)c1"
  test system: "SK-MEL-5 melanoma"
  cat: -1
- compound: "CCC(=O)Nc1ccc(C)c(-c2ccc(C(=O)NCC3CC3)cc2)c1"
  test system: "SK-MEL-5 melanoma"
  cat: -1
- compound: "N#Cc1c(N)nc(N2CCOCC2)c(C#N)c1-c1ccccn1"
  test system: "SK-MEL-5 melanoma"
  cat: -1
- compound: "CCOC(=O)c1cc(-c2ccccc2)[nH]c1N/N=C/c1ccc(Cl)cc1"
  test system: "SK-MEL-5 melanoma"
  cat: -1
- compound: "Cc1cc2c(C(N)=O)c(N)n(-c3c(C)ccc(O)c3C)c2nc1C"
  test system: "SK-MEL-5 melanoma"
  cat: -1
- compound: "O=C1C=CC(=O)N1c1cccc(N2C(=O)C=CC2=O)c1"
  test system: "SK-MEL-5 melanoma"
  cat: -1
